Where do the numbers come from? From PubChem BioAssay (NCATS).

# target: Thyrotropin-releasing hormone receptor (Homo sapiens)
# measurement_description: qHTS for Small Molecule Agonists and Allosteric Enhancers of Human TRH Receptor: Validation Screen for Agonists (AID 493127);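 note: intracellular calcium rise by fluo-8 fluorescence before TRH EC20 addition; 0% is about no effect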
# measurement_conditions: TRH receptor agonist cell assay; at 2 µM; hits give high values
Activity calls are given as the source filed them.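 Rule for the calls: active = calcium activation more than 3 SD above the typical response in the agonist read; inactive = the rest.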
Reported activation values for the following compounds.

# compound, activation
rows = [
    ("C[C@@H](NC(=O)/C(C#N)=C/c1ccc(O)c(O)c1)c1ccccc1", "0.938% (inactive)"),
]

Query string: Given the compound O=c1[nH]c2cc([N+](=O)[O-])c([N+](=O)[O-])cc2[nH]c1=O , what is its reported activation?
Result string: 1.31% (inactive)

Query string: Given the compound CCCCCCCCCCCCCCCCCCNC(=O)OCC(COP(=O)([O-])OCC[n+]1ccsc1)OC (stereo not given) , what is its reported activation?
Result string: 0.875% (inactive)

Query string: Given the compound CN(C)c1nc(N)c(C(=O)N=C(N)N)nc1Cl , what is its reported activation?
Result string: 0.625% (inactive)

Query string: Given the compound CC12C(=O)OC(=O)C1(C)C1CCC2O1 (stereo not given) , what is its reported activation?
Result string: -0.25% (inactive)

Query string: Given the compound COC(=O)c1c(C)[nH]c(C)c1C(=O)c1ccccc1Cc1ccccc1 , what is its reported activation?
Result string: 7.25% (inactive)

###

Reported activity, negative = cell killing values for the following compounds.
# measurement_description: Drug repurposing screens with cells derived from glioblastoma tumor samples (AID 1345199); note: % is set by controls: 0 for no effect and ±100 for the full control effect; nearly all actives have a fitted effect of over 40% in size
# measurement_conditions: GBM patient neurospheres viability, ATP luminescence, 48 h; at 45.9 µM (top of the series); tumour line D
Records with an inconclusive call do not appear.
Give the number; % is assumed, so skip it.

For orientation, consider the following solved cases.
# compound, activity, negative = cell killing [%]
rows = [
    ("Cc1ccc(O)c(-n2nc3ccccc3n2)c1", -17.5),
    ("CCCCC[C@H](O)/C=C/[C@@H]1[C@@H](C/C=C\\CCCC(=O)O)[C@@H](O)C[C@H]1O", -6.45),
    ("CC(C)Cc1ccc([C@H](C)C(=O)O)cc1", 0.88),
    ("Nc1ccc(C(=O)O)c(O)c1", 3.71),
    ("CCC1C(=O)OCC1Cc1cncn1C (stereo unspecified)", -8.25),
    ("CC(C(=O)O)c1ccc2c(c1)[nH]c1ccc(Cl)cc12 (stereo unspecified)", -15.7),
]

Query string: Given the compound CC[C@H]1OC(=O)[C@H](C)C(=O)[C@H](C)[C@@H](O[C@@H]2O[C@H](C)C[C@H](N(C)C)[C@H]2O)[C@](C)(OC)C[C@@H](C)C(=O)[C@H](C)[C@H]2N(CCCCn3cnc(-c4cccnc4)c3)C(=O)O[C@]12C , what is its reported activity, negative = cell killing?
Result string: 5.49

Query string: Given the compound O=C1CN(/N=C/c2ccc([N+](=O)[O-])o2)C(=O)N1 , what is its reported activity, negative = cell killing?
Result string: -3.4

Query string: Given the compound O=C(OCc1ccccc1)c1ccccc1 , what is its reported activity, negative = cell killing?
Result string: -19

Query string: Given the compound COc1ccc(-c2cc(=S)ss2)cc1 , what is its reported activity, negative = cell killing?
Result string: -22.3

Query string: Given the compound Cc1[nH]cnc1CN1CCc2c(c3ccccc3n2C)C1=O , what is its reported activity, negative = cell killing?
Result string: -4.04

Query string: Given the compound COc1cc2c3cc1Oc1cc(ccc1O)C[C@@H]1c4c(cc(OC)c(O)c4Oc4ccc(cc4)C[C@@H]3N(C)CC2)CC[N+]1(C)C , what is its reported activity, negative = cell killing?
Result string: -8.25

Query string: Given the compound CC1(C)S[C@@H]2[C@H](NC(=O)[C@H](NC(=O)N3CCN(S(C)(=O)=O)C3=O)c3ccccc3)C(=O)N2[C@H]1C(=O)O , what is its reported activity, negative = cell killing?
Result string: -7.16

Query string: Given the compound O=C(O)Cc1cccc(-c2cc(CCCCCCc3ccc(O[C@H]4O[C@H](CO)[C@@H](O)[C@H](O)[C@@H]4O)c(-c4cccc(CC(=O)O)c4)c3)ccc2O[C@H]2O[C@H](CO)[C@@H](O)[C@H](O)[C@@H]2O)c1 , what is its reported activity, negative = cell killing?
Result string: -11.6

Query string: Given the compound O=C(Nc1ccc(C(=O)O)c(O)c1)c1ccccc1 , what is its reported activity, negative = cell killing?
Result string: -3.46

Query string: Given the compound CC(=O)SCC(CC(=O)c1ccc(C)cc1)C(=O)O (stereo unspecified) , what is its reported activity, negative = cell killing?
Result string: -21.8
